As an illustration, consider measured MIC for compounds on Shigella sonnei EW 33 Type I.
Answers are plain numbers, in µg/mL.

Before answering, review these 3 worked examples.
Q: Any idea what its MIC is? The compound is `O=[N+]([O-])c1cc(Cl)n(CC(I)=C(I)I)c1`
Result: 12.5

Q: Any idea what its MIC is? The compound is `O=[N+]([O-])c1cn(CC(I)=C(I)I)c(Cl)c1Cl`
Result: 6.25

Q: Any idea what its MIC is? The compound is IC(I)=C(I)Cn1ccnc1 [1-(2',3',3'-triiodoallyl)-imidazole, 1-(2',3',3'-Triiodoallyl)imidazole]
Result: 6.5

More entries:
Q: Any idea what its MIC is? The compound is `O=[N+]([O-])c1nccn1CC(I)=C(I)I`
Result: 3.12

* * *

For each record, write down the corresponding MIC.
- Tested on: Citrobacter freundii GN-346
- method.description: Antibacterial activity (in medicinal field), MIC
- Assay type: cell-based
- experimental.parameters: GN346, read-out: Minimal Inhibitory Conc. (MIC)
Numbers only, in µg/mL.

Q: Item: `O=[N+]([O-])c1cn(CC(I)=C(I)I)c(Cl)c1Cl` Test system: Citrobacter freundii GN-346 Read-out: MIC Value: ?
Result: 12.5

Q: Item: `O=[N+]([O-])c1cc(Cl)n(CC(I)=C(I)I)c1` Test system: Citrobacter freundii GN-346 Read-out: MIC Value: ?
Result: 12.5

Q: Item: `O=[N+]([O-])c1nccn1CC(I)=C(I)I` Test system: Citrobacter freundii GN-346 Read-out: MIC Value: ?
Result: 3.12

More entries:
Q: Item: `IC(I)=C(I)Cn1ccnc1` Test system: Citrobacter freundii GN-346 Read-out: MIC Value: ?
Result: 12.5

* * *

- Tested on: Trichophyton mentagrophytes
- method.description: Therapeutic experiment: treatment of trichophytosis in guinea pigs
- Type: in vivo
- experimental.parameters: 1 % preparation, 0.25 ml once per day over 8 consecutive days, visual observation of diseased skin
metric: Therapeutic Effect: Redness

Q: Any idea what its Therapeutic Effect: Redness is? The compound is O=[N+]([O-])c1ccn(CC(I)=C(I)I)c1 [1-(2',3',3'-triiodoallyl)-3-nitropyrrole]
Result: prominently effective

Q: Any idea what its Therapeutic Effect: Redness is? The compound is O=[N+]([O-])c1c(Cl)cccc1-c1c[nH]cc1Cl [pyrrolni-trin, reference compound]
Result: in-effective

Q: Any idea what its Therapeutic Effect: Redness is? The compound is Clc1ccccc1C(c1ccccc1)(c1ccccc1)n1ccnc1 [chlotri-mazol, reference compound]
Result: in-effective

Q: Any idea what its Therapeutic Effect: Redness is? The compound is `O=[N+]([O-])c1cn(CC(I)=C(I)I)c(Cl)c1Cl`
Result: prominently effective

* * *

As an illustration, consider measured MIC for molecules on Staphylococcus aureus 209P JC-1.
Give bare numbers, in mg/L.

Before answering, review these 3 worked examples.
Q: Any idea what its MIC is? The molecule is `O=[N+]([O-])c1cn(CC(I)=C(I)I)c(Cl)c1Cl`
Result: 31.2

Q: Any idea what its MIC is? The molecule is `O=[N+]([O-])c1cc(Cl)n(CC(I)=C(I)I)c1`
Result: 6.25

Q: Any idea what its MIC is? The molecule is `O=[N+]([O-])c1nccn1CC(I)=C(I)I`
Result: 12.5

// switching to the query molecule
Q: Any idea what its MIC is? The molecule is IC(I)=C(I)Cn1ccnc1 [1-(2',3',3'-triiodoallyl)-imidazole, 1-(2',3',3'-Triiodoallyl)imidazole]
Result: 12.5
